Target: SMARCA2 (Homo sapiens, UniProt P51531)
Sequence (P51531 whole entry): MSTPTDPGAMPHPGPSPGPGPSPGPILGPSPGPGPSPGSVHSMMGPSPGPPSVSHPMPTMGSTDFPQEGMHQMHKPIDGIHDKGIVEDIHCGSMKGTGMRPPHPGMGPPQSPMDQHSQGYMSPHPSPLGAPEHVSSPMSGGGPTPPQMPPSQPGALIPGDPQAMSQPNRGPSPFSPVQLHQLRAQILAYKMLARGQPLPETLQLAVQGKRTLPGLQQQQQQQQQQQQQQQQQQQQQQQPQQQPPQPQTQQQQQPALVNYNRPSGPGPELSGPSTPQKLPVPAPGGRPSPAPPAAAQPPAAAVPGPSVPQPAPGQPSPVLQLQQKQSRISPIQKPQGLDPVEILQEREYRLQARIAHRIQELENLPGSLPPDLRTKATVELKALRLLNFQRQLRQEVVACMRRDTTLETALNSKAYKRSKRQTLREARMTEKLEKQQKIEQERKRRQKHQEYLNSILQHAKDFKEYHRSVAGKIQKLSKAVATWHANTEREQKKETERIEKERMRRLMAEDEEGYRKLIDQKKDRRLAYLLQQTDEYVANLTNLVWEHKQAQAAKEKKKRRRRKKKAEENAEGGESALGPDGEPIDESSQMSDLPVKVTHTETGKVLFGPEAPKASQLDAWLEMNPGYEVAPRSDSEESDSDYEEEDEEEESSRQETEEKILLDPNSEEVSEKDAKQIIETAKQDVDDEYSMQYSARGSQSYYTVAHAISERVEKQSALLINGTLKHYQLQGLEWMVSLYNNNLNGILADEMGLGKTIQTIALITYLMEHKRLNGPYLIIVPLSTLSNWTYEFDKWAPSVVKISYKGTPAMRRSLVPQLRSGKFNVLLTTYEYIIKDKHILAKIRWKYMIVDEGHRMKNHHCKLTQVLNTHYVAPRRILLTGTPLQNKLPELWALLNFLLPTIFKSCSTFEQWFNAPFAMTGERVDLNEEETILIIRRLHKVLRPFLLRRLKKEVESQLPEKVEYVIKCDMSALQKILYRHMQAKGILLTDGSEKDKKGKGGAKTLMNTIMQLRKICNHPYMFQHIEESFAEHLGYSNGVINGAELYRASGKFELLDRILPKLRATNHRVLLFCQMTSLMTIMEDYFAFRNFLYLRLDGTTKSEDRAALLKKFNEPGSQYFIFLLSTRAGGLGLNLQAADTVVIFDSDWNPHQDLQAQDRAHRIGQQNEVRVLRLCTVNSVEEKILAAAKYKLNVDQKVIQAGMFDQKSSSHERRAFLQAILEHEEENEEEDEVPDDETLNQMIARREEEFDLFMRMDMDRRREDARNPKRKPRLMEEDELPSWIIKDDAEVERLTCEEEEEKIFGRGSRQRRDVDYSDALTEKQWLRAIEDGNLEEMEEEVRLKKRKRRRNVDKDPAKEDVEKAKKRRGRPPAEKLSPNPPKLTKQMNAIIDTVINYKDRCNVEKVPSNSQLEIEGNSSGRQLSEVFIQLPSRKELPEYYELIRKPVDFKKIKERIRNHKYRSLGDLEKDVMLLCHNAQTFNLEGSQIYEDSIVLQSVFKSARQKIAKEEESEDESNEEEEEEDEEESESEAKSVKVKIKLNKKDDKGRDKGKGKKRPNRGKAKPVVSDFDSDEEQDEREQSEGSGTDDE
Experiment: HiBit assay in engineered HT1080 CRISPR knock-in cell, 6 hrs (B series), SMARCA2
Type: cell-based
Conditions: HT-1080, HT1080 CRISPR knock-in cells, 6 hrs incubation; read-out: SMARC A2 HT1080 HiBit Dmax (%)
Quick list: Dmax per entry.

Cc1ncsc1-c1ccc([C@H](C)NC(=O)[C@@H]2C[C@@H](O)CN2C(=O)[C@@H](c2cc(OC3CCC(CN4CCC(c5ccc6c(c5)-n5c(nc(=O)c7c(Cl)cccc75)C6(C)C)CC4)CC3)no2)C(C)C)cc1 (stereo partly drawn) | > 90%
Cc1cc(C(C(=O)N2C[C@H](O)C[C@H]2C(=O)N[C@@H](C)c2ccc(-c3scnc3C#CCN3CCC(c4cccc5c4C(C)(C)c4nc(=O)c6c(Cl)cccc6n4-5)CC3)cc2)C(C)C)on1 (stereo partly drawn) | 50 to 69%
Cc1ncsc1-c1ccc([C@H](C)NC(=O)[C@@H]2C[C@@H](O)CN2C(=O)[C@H](C(C)C)n2cc(OCCN3CCC(c4ccc5c(c4)C(C)(C)c4nc(=O)c6c(Cl)cccc6n4-5)CC3)cn2)cc1 | 70 to 90%
Cc1ncsc1-c1ccc([C@H](C)NC(=O)[C@@H]2C[C@@H](O)CN2C(=O)[C@@H](n2cc([C@H]3CC[C@H](CN4CCN(c5ccc6c(c5)-n5c(nc(=O)c7c(Cl)cccc75)C6(C)C)CC4)CC3)nn2)C(C)(C)C)cc1 | > 90%
Cc1ncsc1-c1ccc([C@H](C)NC(=O)[C@@H]2C[C@@H](O)CN2C(=O)[C@@H](NC(=O)C2CC(N3CCC(c4ccc5c(c4)C(C)(C)c4nc(=O)c6c(Cl)cccc6n4-5)CC3)C2)C(C)(C)C)cc1 (stereo partly drawn) | 70 to 90%

Asked: Name the recorded Dmax for "Cc1ncsc1-c1ccc([C@H](C)NC(=O)[C@@H]2C[C@@H](O)CN2C(=O)[C@@H](NC(=O)C23CC(CN4CCC(c5ccc6c(c5)C(C)(C)c5nc(=O)c7c(Cl)cccc7n5-6)CC4)(C2)C3)C(C)(C)C)cc1" .
Given back: > 90%

Asked: Name the recorded Dmax for "Cc1ncsc1-c1ccc([C@H](C)NC(=O)[C@@H]2C[C@@H](O)CN2C(=O)[C@@H](c2cc(OCCCCn3cc(-c4ccc5c(c4)-n4c(nc(=O)c6c(Cl)cccc64)C5(C)C)cn3)no2)C(C)C)cc1" .
Given back: 50 to 69%

Asked: Name the recorded Dmax for Cc1ncsc1-c1ccc([C@H](C)NC(=O)[C@@H]2C[C@@H](O)CN2C(=O)[C@@H](NC(=O)CC2CCC(N3CCC(c4ccc5c(c4)-n4c(nc(=O)c6c(Cl)cccc64)C5(C)C)CC3)CC2)C(C)(C)C)cc1 (stereo partly drawn) .
Given back: > 90%

Asked: Name the recorded Dmax for "Cc1ncsc1-c1ccc([C@H](C)NC(=O)[C@@H]2C[C@@H](O)CN2C(=O)[C@@H](n2cc([C@H]3CC[C@H](CN4CCC(c5ccc6c(c5)-n5c(nc(=O)c7c(Cl)cccc75)C6(C)C)CC4)CC3)nn2)C(C)(C)C)cc1" .
Given back: > 90%
